ENDPOINT: flash point (°C)
Answer format: numeric, °C implied, no suffix.

Previously resolved entries follow.
C/C=C/CCC [trans-2-hexene] :: -20
CC(C)Cc1ccccc1 :: 55
CCCCCCCCS :: 69
SCCS :: 50

# context switch: different compound, same flash point
// flash point value for CN(C)C1CCCCC1 : 39

---

Param threshold (60 °C) applies to flash point; output T when value >= threshold, F when value < threshold.

# example entries with known answers
C[Si](Cl)(c1ccccc1)c1ccccc1 :: T
CCCC[Si](Cl)(Cl)Cl :: F
C=C(CCl)C[Si](C)(C)C :: F
CC[Si](CC)(CC)CC :: F
C[Si](C)(C)CBr :: F

Quick check, flash point >= 60 °C? C=C[Si](C)(C)N[Si](C)(C)C=C
F

Quick check, flash point >= 60 °C? CCCCCC[SiH](Cl)Cl
T

Quick check, flash point >= 60 °C? Clc1ccc([Si](Cl)(Cl)Cl)cc1
T

Quick check, flash point >= 60 °C? C[Si](Cl)(Cl)CCCCl
T

Quick check, flash point >= 60 °C? C[Si](C)(C)O[SiH2]O[Si](C)(C)C
F

Quick check, flash point >= 60 °C? CC(C)[SiH](C(C)C)C(C)C
F

Quick check, flash point >= 60 °C? C=C[Si](C=C)(C=C)C=C
F

Quick check, flash point >= 60 °C? C=C[Si](OCC)(OCC)OCC
F

Quick check, flash point >= 60 °C? CCCO[Si](OCCC)(OCCC)OCCC
T

Quick check, flash point >= 60 °C? C[Si](C)(C)Br
F

---

Param threshold (50 °C) applies to flash point; output T when value >= threshold, F when value < threshold.

CN(C)[SiH](C)C [(N,N-Dimethylamino)dimethylsilane] :: F
CCCCCCCCCCCCCCCCCC[Si](Cl)(Cl)Cl [n-Octadecyltrichlorosilane] :: T
CCCCCC[SiH](Cl)Cl [Hexyldichlorosilane] :: T
CC(=O)OC[Si](C)(C)C [Acetoxymethyltrimethylsilane] :: F

Quick check, flash point >= 50 °C? C[Si](C)(C)O[Si](C)(C)O[Si](C)(C)O[Si](C)(C)O[Si](C)(C)O[Si](C)(C)O[Si](C)(C)C [Hexadecamethylheptasiloxane]
T

Quick check, flash point >= 50 °C? C[SiH](C)O[Si](O[SiH](C)C)(O[SiH](C)C)O[SiH](C)C [Tetrakisdimethylsiloxysilane]
T

Quick check, flash point >= 50 °C? C=C[Si](C=C)(C=C)C=C [Tetravinylsilane]
F

Quick check, flash point >= 50 °C? C[Si](C)(C)CBr [Bromomethyltrimethylsilane]
F

---

Rule: flash point below 50 °C gives label 1. Equal to or above 50 °C gives label 0.

Please determine if CC(=O)OC(C)C [isopropyl acetate] is below 50 °C in terms of flash point.
label 1

Please determine if CCCC(C)CC (stereo not drawn) is below 50 °C in terms of flash point.
label 1

Please determine if CCOC(=O)C(C)C [ethyl isobutyrate] is below 50 °C in terms of flash point.
label 1

Please determine if CCCCOC(C)=O [n-butyl acetate] is below 50 °C in terms of flash point.
label 1

Please determine if CN1CCCC1=O is below 50 °C in terms of flash point.
label 0

Please determine if C=CCCCCCCCCCCCC is below 50 °C in terms of flash point.
label 0

Please determine if Cc1ccc2ccccc2c1 is below 50 °C in terms of flash point.
label 0

Please determine if CCCCCCCC#N is below 50 °C in terms of flash point.
label 0
